molecular target: T1, cynomolgus monkey BCMA (cynomolgus monkey, UniProt A0A2K5UD97 1-53); assay: SPR, IgG on chip, cyBCMA analyte
T1 construct: Soluble analyte in SPR; construct not described; also called cyBCMA; Cyno BCMA
T1 sequence (A0A2K5UD97 entry or part of it): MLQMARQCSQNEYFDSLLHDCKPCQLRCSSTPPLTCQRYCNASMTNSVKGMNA
Examples of binders with documented Kd follow.

Binder	Kd [nM]
C01_Rd4_0.6nM_C06 (antibody, V domains shown, IgG) VH: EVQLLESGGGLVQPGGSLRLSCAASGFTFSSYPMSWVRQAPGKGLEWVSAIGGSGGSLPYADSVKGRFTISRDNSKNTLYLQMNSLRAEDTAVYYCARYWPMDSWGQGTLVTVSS VL: EIVLTQSPGTLSLSPGERATLSCRASEAVPSTYLAWYQQKPGQAPRLLIYDASSRAPGIPDRFSGSGSGTDFTLTISRLEPEDFAVYYCQQYSAFPLTFGQGTKVEIK	1.95
A02_Rd4_0.6nM_C13 (antibody, V domains shown, IgG) VH: EVQLLESGGGLVQPGGSLRLSCAASGFTFSSYAMNWVRQAPGKGLEWVSAISDSGGYRYYADSVKGRFTISRDNSKNTLYLQMNSLRAEDTAVYYCARYWPMSLWGQGTLVTVSS VL: EIVLTQSPGTLSLSPGERATLSCRASQSVSSSYWAWYQQKPGQAPRLLMYDASIRATGIPDRFSGSGSGTDFTLTISRLEPEDFAVYYCQQYESWPLTFGQGTKVEIK	0.56

Taken from patent US20190241669A1.
